Values were extracted from ChEMBL document CHEMBL4765345.

# Tested on: HL-60
# assayText: Antiproliferative activity against human HL60 assessed as reduction in cell growth at 20 uM by CellTiter-non radioactive cell proliferation assay
# Format: functional
observationType: inhibition at 20 µM (%)
Write the number in % without appending the unit.

Query :: For the molecule `COc1ccc(C(=O)NO)cc1CS(=O)(=O)Nc1ccc2c(c1)cc(C)c(=O)n2C` , what inhibition at 20 µM is on record?
Result :: 0

Query :: For the molecule `COc1ccc(C(=O)NO)cc1NCc1ccc(OCCCCC(=O)Nc2ccc3c(c2)cc(C)c(=O)n3C)cc1` , what inhibition at 20 µM is on record?
Result :: 0

Query :: For the molecule `Cc1cc2cc(NS(=O)(=O)c3ccc(C(=O)NO)cc3)ccc2n(C)c1=O` , what inhibition at 20 µM is on record?
Result :: 6

Query :: For the molecule `COc1ccc(C(=O)NOCc2ccc(OC(C)=O)cc2)cc1S(=O)(=O)Nc1ccc2c(c1)cc(C)c(=O)n2C` , what inhibition at 20 µM is on record?
Result :: 0

Query :: For the molecule `COC(=O)c1ccc(S(=O)(=O)Nc2ccc3c(c2)cc(C)c(=O)n3C)cc1` , what inhibition at 20 µM is on record?
Result :: 22

Query :: For the molecule `COC(=O)c1ccc(CS(=O)(=O)Nc2ccc3c(c2)cc(C)c(=O)n3C)cc1` , what inhibition at 20 µM is on record?
Result :: 14

Query :: For the molecule `COC(=O)c1ccc(OC)c(S(=O)(=O)Nc2ccc3c(c2)cc(C)c(=O)n3C)c1` , what inhibition at 20 µM is on record?
Result :: 44

Query :: For the molecule `Cc1cc2cc(NS(=O)(=O)Cc3ccc(C(=O)NO)cc3)ccc2n(C)c1=O` , what inhibition at 20 µM is on record?
Result :: 0

Query :: For the molecule `Cc1cc2cc(NS(=O)(=O)c3cc(C(=O)NO)ccc3Cl)ccc2n(C)c1=O` , what inhibition at 20 µM is on record?
Result :: 32

Query :: For the molecule `COc1ccc(C(=O)NO)cc1S(=O)(=O)Nc1ccc2c(c1)cc(C)c(=O)n2C` , what inhibition at 20 µM is on record?
Result :: 10

Query :: For the molecule `COc1cc(C(=O)NO)ccc1CS(=O)(=O)Nc1ccc2c(c1)cc(C)c(=O)n2C` , what inhibition at 20 µM is on record?
Result :: 0

Query :: For the molecule `Cc1cc2cc(NS(=O)(=O)Cc3cccc(C(=O)NO)c3)ccc2n(C)c1=O` , what inhibition at 20 µM is on record?
Result :: 0

Query :: For the molecule `Cc1cc2cc(NC(=O)c3ccc(S(=O)(=O)Nc4ccc5c(c4)cc(C)c(=O)n5C)cc3)ccc2n(C)c1=O` , what inhibition at 20 µM is on record?
Result :: 55
